system: Wolbachia pipientis; experiment: Anti-Wolbachia Cell-Based Screen; assay type: functional; set-up: scale not given: in the data most compounds retested in dose-response had high values; settings: 5 µM
In all, about 48,000 compounds went through this assay and about 13,000 (27%) showed an effect of 50% or more. The list shows a part of the results.
Measured Property: Percent Effect

> print(dat)
                                   molecule  measured.property  meas.value
1  COCCN1CCC(CNC(=O)c2cc(C)cc(C)c2)C1 (centres undefined)     Percent Effect       11.6%
2  COC(=O)CCNC(=O)c1ccoc1CN1c2ccccc2CC1C (centres undefined)     Percent Effect     -5.639%
3    CNS(=O)(=O)Cc1ccc(CNC(=O)Nc2cccnc2)cc1     Percent Effect     -4.432%
4  CC(C)(C)OC(=O)NCC1CCN(C(=O)c2cc(Cl)c[nH]2)CC1     Percent Effect       10.1%
5  Cc1ccc(-n2ncc(C(=O)N(C)C3CCN(C)CC3)c2N)cc1C     Percent Effect      137.5%
6  Cc1c(F)cc(C(=O)NCC(F)(F)F)cc1NCC(=O)N(C)C     Percent Effect      4.918%
7  N#Cc1cn(C2CC2)c(=O)n(CC(O)c2ccccc2F)c1=O (centres undefined)     Percent Effect      -13.9%
8  Cc1ncsc1C(=O)NCC1CCC2(CCNCC2)CO1.Cl (centres undefined)     Percent Effect     -19.17%
9           COCc1nc2cc(NCc3sc(C)nc3C)ccc2o1     Percent Effect      1.098%

###

tested on: Wolbachia pipientis; assay: Anti-Wolbachia Cell-Based Screen; format: functional; set-up: scale not given: in the data most compounds retested in dose-response had high values; details: 5 µM
Out of some 48,000 compounds screened, about 13,000 (27%) showed an effect of 50% or more. The list shows a part of the results.
Let's look at some compounds and their measured Percent Effect.
Measured Property: Percent Effect (%)

> print(dat)
                                    compound  meas.value
 1  CCCC(C)CN1CCC(n2cc(C3CCCC3)nn2)CC1 (stereo not drawn)      0.2453
 2  CCC(CO)N(Cc1ccsc1)Cc1c(C)nn(C)c1Cl (stereo not drawn)       83.51
 3  O=C(NC1CCCc2nc(N3CCOCC3)ncc21)C1CCCCC1 (stereo not drawn)        91.3
 4  O=C(NC1CC1)c1cn(C2CCN(c3cc(C4CC4)ncn3)CC2)nn1      -15.81
 5  O=C(CC1CCCCC1)NC1CCCc2nc(N3CCOCC3)ncc21 (stereo not drawn)       100.9
 6  CCC(CO)N(Cc1ccccn1)Cc1c[nH]nc1-c1ccc(F)cc1 (stereo not drawn)      -3.197
 7  COc1ccc(N(C)C(=O)c2ccc(Cl)c(S(C)(=O)=O)c2)cn1      -5.224
 8  CC(C)Nc1ncnc2c1CCN(C(=O)Cc1ccccn1)CC2.O=C(O)C(F)(F)F       17.78
 9  Cn1cc(CN2CC[C@@H]3[C@@H]2CCN3Cc2ccc3c(c2)OCO3)cn1.O=C(O)C(F)(F)F.O=C(O)C(F)(F)F      -8.648
10  CCC(CO)N(Cc1ccco1)Cc1c(C)nn(C)c1Cl (stereo not drawn)       113.8
11  CCC(CO)N(Cc1ccc(F)cc1)Cc1c(C)nn(C)c1Cl (stereo not drawn)       108.6
12  CC(=O)N1CCc2nc(-c3ccccc3)nc(NC(C)C)c2CC1       96.01
13  CCC(CO)N(Cc1ccco1)C(=O)c1cccc(C)c1O (stereo not drawn)      -5.185
14  Cn1cc(C(=O)N2CC[C@@H]3[C@@H]2CCN3Cc2ccccc2)cn1.O=C(O)C(F)(F)F      -15.71
15  CC(C)(C)c1cn(C2CCN(C(=O)c3cncnc3)CC2)nn1       8.941
16  Cc1nc2c(c(NC(C)C)n1)CCN(C(=O)c1ccno1)CC2.O=C(O)C(F)(F)F      -9.631
17  Cc1nc(-c2ccc(F)cc2)nc2c1CCN(C(=O)CN(C)C)CC2       3.588
18  CC1(C)CC(N2Cc3nc(N4CCOCC4)ncc3C2=O)CC(C)(C)N1       10.47
